Body weight during feed period, 22nd day for assorted compounds
- method.summary: Body weight of rats in method B
- Set-up: species or system male Wistar strain rats
- protocol.conditions: rat, in vivo
Give a bare numeral; the unit g is implied.

Example entries begin here.
                                   compound  unit_of_measurement  measured_value
0  C=C(CCC(C)C1CCC2(C)C3CCC4C(C)(C)C(OC(=O)C(C)=Cc5cc(N)ccc5OCCC)CCC45CC35CCC12C)C(C)C (stereo not drawn) [Example 197]                    g             239
1  CCOc1ccc(N)cc1C=CC(=O)OC1CCC23CC24CCC2(C)C(C(C)CCC=C(C)C)CCC2(C)C4CCC3C1(C)C (stereo not drawn) [Example 183]                    g             239
2  C=C(CCC(C)C1CCC2(C)C3CCC4C(C)(C)C(OC(=O)C(C)=Cc5ccc(N)c(OC)c5)CCC45CC35CCC12C)C(C)C (stereo not drawn) [Example 191]                    g             239
3  CCOc1cc(C=C(C)C(=O)OC2CCC34CC35CCC3(C)C(C(C)CCC(C)=C(C)C)CCC3(C)C5CCC4C2(C)C)ccc1O (stereo not drawn) [Example 140]                    g             246
4  COc1cc(C=C(C)C(=O)OC2CCC34CC35CCC3(C)C(C(C)CCC(C)=C(C)C)CCC3(C)C5CCC4C2(C)C)ccc1O (stereo not drawn) [Example 116]                    g             244
5  COc1cc(C=C(C)C(=O)OC2CCC34CC35CCC3(C)C(C(C)CCC=C(C)C)CCC3(C)C5CCC4C2(C)C)ccc1O (stereo not drawn) [Example 114]                    g             247
6  CCC(=Cc1ccc(O)cc1)C(=O)OC1CCC23CC24CCC2(C)C(C(C)CCC=C(C)C)CCC2(C)C4CCC3C1(C)C (stereo not drawn) [Example 130]                    g             245
7  COc1cc(C=C(C)C(=O)OC2CCC34CC35CCC3(C)C(C(C)CCC=C(C)C)CCC3(C)C5CCC4C2(C)C)ccc1N (stereo not drawn) [Example 189]                    g             239

GET /values?readout=Body weight during feed period, 22nd day&item= C=C(CCC(C)C1CCC2(C)C3CCC4C(C)(C)C(OC(=O)C(C)=Cc5ccc(O)c(OC)c5)CCC45CC35CCC12C)C(C)C (stereo not drawn) [Example 118]
243
